Where do the numbers come from? From ChEMBL document CHEMBL3988442.

Percent Effect for assorted molecules
# subject_of_test: Histidine--tRNA ligase (Leishmania infantum)
# Sequence (whole entry): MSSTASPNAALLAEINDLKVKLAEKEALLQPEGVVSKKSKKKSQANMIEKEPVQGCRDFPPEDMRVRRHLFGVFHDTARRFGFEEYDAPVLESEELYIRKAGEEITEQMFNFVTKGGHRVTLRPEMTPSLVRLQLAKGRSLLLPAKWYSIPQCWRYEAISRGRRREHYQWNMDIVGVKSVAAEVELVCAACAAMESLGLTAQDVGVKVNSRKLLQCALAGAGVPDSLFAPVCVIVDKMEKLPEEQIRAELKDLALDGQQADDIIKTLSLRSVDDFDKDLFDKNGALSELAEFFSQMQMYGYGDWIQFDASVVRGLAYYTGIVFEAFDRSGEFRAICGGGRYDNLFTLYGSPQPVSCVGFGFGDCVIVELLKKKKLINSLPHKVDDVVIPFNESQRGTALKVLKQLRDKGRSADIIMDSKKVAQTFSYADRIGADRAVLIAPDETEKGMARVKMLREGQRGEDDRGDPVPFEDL
# measurement_description: Leishmania infantum Histidine tRNA synthetase (LdHisRS)
# Type: functional
# Parameters: scale not given: in the data most compounds retested in dose-response had high values
# measurement_setup: 30 µM
In all, about 69,000 compounds went through this assay and about 420 (0.61%) showed an effect of 50% or more. The sample as a whole holds a higher share of strong results than the screen did.
experimental_endpoint: Percent Effect (%)

- molecule: "O=C1C[C@H]2[C@@H](CCN2C(=O)c2ccc[nH]2)N1CCN1CCCC1"
  unit_abbreviation: "%"
  experimental_result: 8.06
- molecule: "NC[C@H]1CC[C@H](C(NC(=O)c2ccccc2)c2ccccn2)CC1 (stereo partly specified)"
  unit_abbreviation: "%"
  experimental_result: 22.9
- molecule: "Cc1ccc(-n2cc(CN3CCN(C)[C@@H]4CS(=O)(=O)C[C@@H]43)cn2)cc1"
  unit_abbreviation: "%"
  experimental_result: 11.4
- molecule: "Cc1nc[nH]c1CN1CCN(C(=O)CN2CCCC2)[C@H]2CS(=O)(=O)C[C@H]21"
  unit_abbreviation: "%"
  experimental_result: 15.6
- molecule: "Cc1cc(N2CCOCC2)ccc1NC(C)c1nc(C(C)(C)C)no1 (stereo unspecified)"
  unit_abbreviation: "%"
  experimental_result: 28.3
- molecule: "Cc1noc(C(C)Nc2ccc(N3CCOCC3)cc2C)n1 (stereo unspecified)"
  unit_abbreviation: "%"
  experimental_result: 63
- molecule: "O=C(NCCc1ccncc1)[C@@H]1CC[C@@H]2[C@@H](CCN2Cc2ccco2)O1"
  unit_abbreviation: "%"
  experimental_result: 20
- molecule: "COc1ccccc1C(=O)NC(c1ccccn1)[C@H]1CC[C@H](CN)CC1 (stereo partly specified)"
  unit_abbreviation: "%"
  experimental_result: 88.4
- molecule: "COc1ccccc1OCCNC(=O)CN1CCc2cncnc2C1"
  unit_abbreviation: "%"
  experimental_result: 20.2
- molecule: "Cc1cc(N2CCOCC2)ccc1NC(C)c1nc(C(C)C)no1 (stereo unspecified)"
  unit_abbreviation: "%"
  experimental_result: 39.1
- molecule: "CS(=O)(=O)c1ccc(OCCCN2CCc3cncnc3C2)cc1"
  unit_abbreviation: "%"
  experimental_result: 12.5
